pIC50: −log10 of the molar value.
Heads up, these molecules all have pIC50 values measured for AXL (Homo sapiens (Human), UniProt P30530).

Record pIC50 for all entries; do not skip any.
1. CCCCNc1ncc2c3ccc(-c4cnn(C)c4)cc3c(=O)n([C@H]3CC[C@H](O)CC3)c2n1 [Example 7]
2. CCCCNc1ncc2c3ccc(-c4c(F)cccc4F)cc3c(=O)n([C@H]3CC[C@H](O)CC3)c2n1 [Example 8]
3. CCCCNc1ncc2c(n1)N([C@H]1CC[C@H](N)CC1)Cc1cc(CNC3CCCCC3)ccc1-2 [Example 9]

1. < 6.00
2. < 6.00
3. > 7.00

----------
I'd appreciate it if you could supply IC50 values for the items below.
TGT: c-MER (Homo sapiens (Human), UniProt Q12866)
Sequence (Q12866 21-999): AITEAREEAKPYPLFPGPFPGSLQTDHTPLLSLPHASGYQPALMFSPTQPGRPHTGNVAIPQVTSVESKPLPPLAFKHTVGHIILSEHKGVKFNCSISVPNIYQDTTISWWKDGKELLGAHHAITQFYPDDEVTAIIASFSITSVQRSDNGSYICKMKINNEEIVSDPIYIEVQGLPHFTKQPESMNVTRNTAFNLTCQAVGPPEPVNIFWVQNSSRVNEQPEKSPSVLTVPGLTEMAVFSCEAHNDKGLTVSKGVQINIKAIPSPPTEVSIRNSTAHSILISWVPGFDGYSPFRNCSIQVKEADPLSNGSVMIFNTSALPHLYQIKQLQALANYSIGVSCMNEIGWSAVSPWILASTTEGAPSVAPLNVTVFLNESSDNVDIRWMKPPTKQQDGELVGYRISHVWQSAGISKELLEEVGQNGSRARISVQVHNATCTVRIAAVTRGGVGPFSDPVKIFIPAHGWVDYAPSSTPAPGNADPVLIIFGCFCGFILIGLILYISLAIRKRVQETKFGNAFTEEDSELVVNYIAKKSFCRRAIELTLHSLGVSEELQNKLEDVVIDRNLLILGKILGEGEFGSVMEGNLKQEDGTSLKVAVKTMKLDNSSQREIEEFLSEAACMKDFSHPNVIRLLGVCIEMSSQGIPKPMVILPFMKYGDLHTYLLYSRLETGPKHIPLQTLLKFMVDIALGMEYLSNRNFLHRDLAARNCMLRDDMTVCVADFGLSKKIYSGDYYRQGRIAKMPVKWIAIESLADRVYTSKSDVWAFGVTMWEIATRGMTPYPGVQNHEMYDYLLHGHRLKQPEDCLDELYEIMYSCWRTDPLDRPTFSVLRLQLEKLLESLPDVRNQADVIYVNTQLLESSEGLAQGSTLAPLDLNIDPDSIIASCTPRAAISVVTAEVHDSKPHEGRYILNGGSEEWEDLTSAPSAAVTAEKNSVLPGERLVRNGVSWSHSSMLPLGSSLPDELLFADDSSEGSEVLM

>>> print(df.to_string())
                                 cpd_smiles     result
0  CCCCNc1ncc2c(n1)N([C@H]1CC[C@H](N)CC1)Cc1cc(CNC3CCCCC3)ccc1-2   < 100 nM
1  CCCCNc1ncc2c3ccc(CNC4CCCCC4)cc3c(=O)n([C@H]3CC[C@H](N)CC3)c2n1   < 100 nM
2  CCCCNc1ncc2c3ccc(-c4c(F)cccc4F)cc3c(=O)n([C@H]3CC[C@H](O)CC3)c2n1  > 1000 nM
3  CCCCNc1ncc2c(n1)N([C@H]1CC[C@H](N)CC1)Cc1cc(CNC3CCCC3)ccc1-2   < 100 nM

Turning to the following molecule.
Retrieve IC50 measured for `CCCCNc1ncc2c3ccc(CNC4CCOCC4)cc3c(=O)n([C@H]3CC[C@H](O)CC3)c2n1` and print it.
< 100 nM

----------
TGT: TYRO3 (Homo sapiens (Human), UniProt Q06418)
Sequence (Q06418 41-890): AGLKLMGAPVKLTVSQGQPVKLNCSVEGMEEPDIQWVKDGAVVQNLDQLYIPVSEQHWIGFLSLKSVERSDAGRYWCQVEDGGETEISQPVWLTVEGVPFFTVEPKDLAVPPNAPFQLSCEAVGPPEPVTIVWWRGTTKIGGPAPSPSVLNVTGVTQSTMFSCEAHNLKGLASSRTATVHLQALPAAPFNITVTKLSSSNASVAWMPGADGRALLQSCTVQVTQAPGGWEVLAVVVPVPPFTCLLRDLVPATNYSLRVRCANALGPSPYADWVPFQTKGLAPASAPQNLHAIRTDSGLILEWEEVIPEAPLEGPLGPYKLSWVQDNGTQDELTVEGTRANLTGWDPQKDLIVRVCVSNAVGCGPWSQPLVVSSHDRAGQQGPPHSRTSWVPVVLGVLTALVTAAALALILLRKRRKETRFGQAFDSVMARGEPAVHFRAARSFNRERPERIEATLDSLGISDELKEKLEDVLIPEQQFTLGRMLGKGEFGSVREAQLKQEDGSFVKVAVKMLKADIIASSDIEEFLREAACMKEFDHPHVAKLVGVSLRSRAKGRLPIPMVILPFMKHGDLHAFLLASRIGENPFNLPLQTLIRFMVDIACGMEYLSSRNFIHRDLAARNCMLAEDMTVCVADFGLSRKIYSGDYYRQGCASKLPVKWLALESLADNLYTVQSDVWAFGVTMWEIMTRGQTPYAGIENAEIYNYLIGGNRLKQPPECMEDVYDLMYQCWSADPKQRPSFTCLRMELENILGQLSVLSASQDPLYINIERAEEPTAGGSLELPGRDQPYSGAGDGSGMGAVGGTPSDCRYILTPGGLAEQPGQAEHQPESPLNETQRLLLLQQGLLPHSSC
TEST NAME: TAM Enzymatic Assay (HTRF), TYRO3
Assay type: biochemical
CONDITIONS USED: 0.366 nM TYRO3, 20 uM ATP, 60 min room temperature
Exercise: for every item that follows, state its recorded IC50.

Go through the list and state IC50 for each entry.
1. CCCCNc1ncc2c(n1)N([C@H]1CC[C@H](N)CC1)Cc1cc(CNC3CCCCC3)ccc1-2
2. CCCCNc1ncc2c3ccc(CNC4CCCCC4)cc3c(=O)n([C@H]3CC[C@H](N)CC3)c2n1
3. CCCCNc1ncc2c(n1)N([C@H]1CC[C@H](O)CC1)Cc1cc(CNC3CCCCC3)ccc1-2
4. CCCCNc1ncc2c3ccc(CNC4CCOCC4)cc3c(=O)n([C@H]3CC[C@H](O)CC3)c2n1

< 100 nM
< 100 nM
< 100 nM
100 to 1000 nM
